# binding signal annotations
- System: GII.12 VLP, major capsid protein (Human norovirus GII.12)
- method-notes: ELASA
- experimental-setup: ELASA: VLPs 3 ug/ml coated, blocked with 5% skim milk in PBST plus unrelated DNA, 1 uM biotinylated aptamer (10 nM-2 uM for Kd), 1 h at RT, PBST washes
Express the result in T/N ratio but write the number alone.

# annotated cases, reported binding signal shown
| chain-sequence | recorded-metric | assay-result |
| --- | --- | --- |
| AGTATACGTATTACCTGCAGCCACCAGTGTGTTGAGGTTTGAGCACACTGATAGAGTGTCACGATATCTCGGAGATCTTGC [SMV-19] | binding signal | 1.5 |
| AGTATACGTATTACCTGCAGCCATCTGTGTGAAGACTATATGGCGCTCACATATTTCTTTCCGATATCTCGGAGATCTTGC [SMV-25] | binding signal | 1.9 |

[ask] Using the record for AGTATACGTATTACCTGCAGCCCATGTTTTGTAGGTGTAATAGGTCATGTTAGGGTTTCTGCGATATCTCGGAGATCTTGC [SMV-21] , report its binding signal.
[reply] 6.6

[ask] Using the record for AGTATACGTATTACCTGCAGCTGACCGAGTGTCTGGTCATTTTCGATGTCTGTTGTTAGGCCGATATCTCGGAGATCTTGC [SMV-26] , report its binding signal.
[reply] 2.4
